Data origin, for the record: patent US10800752B2

- Procedure text: Solubility test
- Run conditions: 50 mmol/L glycine buffer solution (pH 2.0), room temperature, 24 hours shaking
Assay metric: Solubility in pH 2.0 buffer solution

Example results:
CC(=O)c1cc2c(OC(=O)NCCCCCNCC(=O)O)c3ccccc3c(O)c2o1.Cl [Example 76] : 0.4 mg/mL
CC(=O)c1cc2c(OC(=O)NCCNCCN)c3ccccc3c(OC(=O)NCCNCCN)c2o1.Cl.Cl [Example 46] : >5.0 mg/mL

Consider now this further molecule.
stdin: Given the entry CC(=O)c1cc2c(OC(=O)NCCNCCCC(=O)O)c3ccccc3c(OC(=O)NCCNCCCC(=O)O)c2o1.Cl.Cl [Example 42] , report its measured Solubility in pH 2.0 buffer solution.
stdout: >5.0 mg/mL

----------
- Procedure text: Solubility test
- Run conditions: pH 2, aqueous buffer, thermodynamic from solid, Solubility in pH 2.0 buffer solution, 50 mmol/L glycine buffer solution (pH 2.0), room temperature, 24 hours shaking
Structures can show the parent of a compound that is named as a salt.
Assay metric: solubility at 24 hours

stdin: Given the entry CC(=O)c1cc2c(OC(=O)NCCNCC(=O)O)c3ccccc3c(OC(=O)NCCNCC(=O)O)c2o1 [Example 4, dihydrochloride] , report its measured solubility at 24 hours.
stdout: > 5000 µg/mL

----------
- Procedure text: Solubility test
- Run conditions: 50 mmol/L glycine buffer solution (pH 2.0), room temperature, 24 hours shaking
Assay metric: Solubility in pH 2.0 buffer solution

CC(=O)c1cc2c(OC(=O)NCCNCCS(=O)(=O)N3CCCCC3)c3ccccc3c(OC(=O)NCCNCCS(=O)(=O)N3CCCCC3)c2o1.Cl.Cl [Example 56] : 3.3 mg/mL

// each compound listed below needs its Solubility in pH 2.0 buffer solution
1. CCC(NCCNC(=O)Oc1c2ccccc2c(OC(=O)NCCNC(CC)C(=O)O)c2oc(C(C)=O)cc12)C(=O)O.Cl.Cl (stereo not shown) [Example 51]
2. COC(=O)NCCNCCNC(=O)Oc1c2ccccc2c(OC(=O)NCCNCCNC(=O)OC)c2oc(C(C)=O)cc12.Cl.Cl [Example 67]
3. CC(=O)c1cc2c(OC(=O)NCCCCN)c3ccccc3c(O)c2o1.Cl [Example 74]
4. COC(=O)[C@@H](N)CCNC(=O)Oc1c2ccccc2c(OC(=O)NCC[C@H](N)C(=O)OC)c2oc(C(C)=O)cc12.Cl.Cl [Example 11]

stdout:
1. 0.1 mg/mL
2. >5.0 mg/mL
3. 4.9 mg/mL
4. >5.0 mg/mL

// each compound listed below needs its Solubility in pH 2.0 buffer solution
1. CC(=O)c1cc2c(OC(=O)NC3CNC3)c3ccccc3c(OC(=O)NC3CNC3)c2o1.Cl.Cl [Example 10]
2. CC(=O)c1cc2c(OC(=O)NCCCNCCS(=O)(=O)N(C)C)c3ccccc3c(OC(=O)NCCCNCCS(=O)(=O)N(C)C)c2o1.Cl.Cl [Example 59]
3. CC(=O)c1cc2c(OC(=O)NCCNCCS(=O)(=O)C(C)C)c3ccccc3c(OC(=O)NCCNCCS(=O)(=O)C(C)C)c2o1.Cl.Cl [Example 58]
4. CC(=O)c1cc2c(OC(=O)NC3CCNC3)c3ccccc3c(OC(=O)NC3CCNC3)c2o1.Cl.Cl (stereo not shown) [Example 48]
5. CC(=O)c1cc2c(OC(=O)NCCNCc3ccccc3)c3ccccc3c(OC(=O)NCCNCc3ccccc3)c2o1.Cl.Cl [Example 55]
6. CC(=O)c1cc2c(OC(=O)NCCCNCC(=O)NCC(=O)O)c3ccccc3c(OC(=O)NCCCNCC(=O)NCC(=O)O)c2o1.Cl.Cl [Example 64]

stdout:
1. >5.0 mg/mL
2. >5.0 mg/mL
3. 1.5 mg/mL
4. >5.0 mg/mL
5. >5.0 mg/mL
6. >5.0 mg/mL

// each compound listed below needs its Solubility in pH 2.0 buffer solution
1. COC(=O)[C@@H](N)CNC(=O)Oc1c2ccccc2c(OC(=O)NC[C@H](N)C(=O)OC)c2oc(C(C)=O)cc12.Cl.Cl [Example 32]
2. CC(=O)c1cc2c(OC(=O)NCCCCCNCC(=O)O)c3ccccc3c(OC(=O)NCCCCCNCC(=O)O)c2o1.Cl.Cl [Example 35]

stdout:
[">5.0 mg/mL", ">5.0 mg/mL"]

// each compound listed below needs its Solubility in pH 2.0 buffer solution
1. CC(=O)c1cc2c(OC(=O)NCCCNCC(=O)O)c3ccccc3c(OC(=O)NCCCNCC(=O)O)c2o1.Cl.Cl [Example 40]
2. CC(=O)c1cc2c(O)c3ccccc3c(OC(=O)NCCCNCCS(C)(=O)=O)c2o1.Cl [Example 82]

stdout:
1. >5.0 mg/mL
2. 0.1 mg/mL

// each compound listed below needs its Solubility in pH 2.0 buffer solution
1. CC(=O)c1cc2c(O)c3ccccc3c(OC(=O)NCCCNCC(=O)N3CCC3)c2o1.Cl [Example 86]
2. COC(=O)OCCNCCNC(=O)Oc1c2ccccc2c(OC(=O)NCCNCCOC(=O)OC)c2oc(C(C)=O)cc12.Cl.Cl [Example 69]
3. CC(=O)c1cc2c(OC(=O)NCCCNCC(F)(F)F)c3ccccc3c(OC(=O)NCCCNCC(F)(F)F)c2o1.Cl.Cl [Example 53]

stdout:
1. >5.0 mg/mL
2. >5.0 mg/mL
3. >5.0 mg/mL

// each compound listed below needs its Solubility in pH 2.0 buffer solution
1. CC(=O)c1cc2c(OC(=O)NCCCCCCCN)c3ccccc3c(O)c2o1.Cl [Example 73]
2. CC(=O)c1cc2c(O)c3ccccc3c(OC(=O)NCCNCC(=O)N3CCC3)c2o1.Cl [Example 85]
3. CC(=O)c1cc2c(OC(=O)NCCNCC(=O)NCC(=O)O)c3ccccc3c(OC(=O)NCCNCC(=O)NCC(=O)O)c2o1.Cl.Cl [Example 41]
4. COC(=O)NCCNCCNC(=O)Oc1c2ccccc2c(O)c2cc(C(C)=O)oc12.Cl [Example 89]
5. COC(=O)[C@@H](N)CCNC(=O)Oc1c2ccccc2c(OC(=O)NCC[C@H](N)C(=O)OC)c2oc(C(C)=O)cc12 [Example 108]
6. CC(=O)c1cc2c(OC(=O)NCCCNCCS(C)(=O)=O)c3ccccc3c(OC(=O)NCCCNCCS(C)(=O)=O)c2o1.Cl.Cl [Example 60]
7. CC(=O)c1cc2c(OC(=O)NC[C@H](N)C(=O)O)c3ccccc3c(OC(=O)NC[C@H](N)C(=O)O)c2o1.Cl.Cl [Example 6]
8. CC(=O)c1cc2c(OC(=O)NCCNC(C)C(=O)O)c3ccccc3c(OC(=O)NCCNC(C)C(=O)O)c2o1.Cl.Cl (stereo not shown) [Example 50]

stdout:
1: 0.1 mg/mL; 2: 4.1 mg/mL; 3: >5.0 mg/mL; 4: >5.0 mg/mL; 5: >5.0 mg/mL; 6: >5.0 mg/mL; 7: 2.8 mg/mL; 8: 0.1 mg/mL

// each compound listed below needs its Solubility in pH 2.0 buffer solution
1. COC(=O)CNCCCNC(=O)Oc1c2ccccc2c(OC(=O)NCCCNCC(=O)OC)c2oc(C(C)=O)cc12.Cl.Cl [Example 47]
2. CC(=O)c1cc2c(OC(=O)NCCCCCCCCN)c3ccccc3c(OC(=O)NCCCCCCCCN)c2o1.Cl.Cl [Example 39]

stdout:
1: >5.0 mg/mL; 2: >5.0 mg/mL

----------
- Procedure text: Evaluation of a conversion rate to 2-acetylnaphtho[2,3-b]furan-4,9-dione in pH 7.4 phosphate buffer solution
- Type: physicochemical
- Run conditions: Phosphate buffer solution (pH 7.4), 1 umol/L, 37° C., incubation time 120 min
Assay metric: % Measurement value (conversion rate to 2-acetylnaphtho[2,3-b]furan-4,9-dione) (%)
One number for each entry, in %.

// each molecule listed below needs its % Measurement value (conversion rate to 2-acetylnaphtho[2,3-b]furan-4,9-dione)
1. CC(=O)c1cc2c(O)c3ccccc3c(OC(=O)NCCCNCC(=O)N3CCC3)c2o1.Cl [Example 86]
2. CC(=O)c1cc2c(OC(=O)NCCN)c3ccccc3c(O)c2o1.Cl [Example 18]
3. CC(=O)c1cc2c(OC(=O)NCCCNCC(=O)O)c3ccccc3c(OC(=O)NCCCNCC(=O)O)c2o1.Cl.Cl [Example 40]
4. COC(=O)NCCNCCCNC(=O)Oc1c2ccccc2c(OC(=O)NCCCNCCNC(=O)OC)c2oc(C(C)=O)cc12.Cl.Cl [Example 68]

stdout:
38
80
50
59

----------
- Procedure text: Evaluation of a conversion rate to 2-acetylnaphtho[2,3-b]furan-4,9-dione in CD1 mouse plasma
- Format: in vitro ADME
- Run conditions: CD1 mouse plasma, 1 umol/L, 37° C., incubation time 120 min
Assay metric: % Measurement value (conversion rate to 2-acetylnaphtho[2,3-b]furan-4,9-dione) (%)
Numbers only, in %.

// each compound listed below needs its % Measurement value (conversion rate to 2-acetylnaphtho[2,3-b]furan-4,9-dione)
1. COC(=O)CNCCNC(=O)Oc1c2ccccc2c(OC(=O)NCCNCC(=O)OC)c2oc(C(C)=O)cc12.Cl.Cl [Example 36]
2. CC(=O)c1cc2c(OC(=O)NCCCCCCCCN)c3ccccc3c(O)c2o1.Cl [Example 75]
3. CC(=O)c1cc2c(OC(=O)NCCNCC(=O)O)c3ccccc3c(O)c2o1.Cl [Example 71]
4. CC(=O)c1cc2c(OC(=O)NCCCCN)c3ccccc3c(OC(=O)NCCCCN)c2o1.Cl.Cl [Example 13]
5. CC(=O)c1cc2c(OC(=O)NCCCCCCCN)c3ccccc3c(OC(=O)NCCCCCCCN)c2o1.Cl.Cl [Example 38]
6. CC(=O)c1cc2c(OC(=O)NCCCCN)c3ccccc3c(O)c2o1.Cl [Example 74]
7. CC(=O)c1cc2c(OC(=O)NCCCCCNCC(=O)O)c3ccccc3c(OC(=O)NCCCCCNCC(=O)O)c2o1.Cl.Cl [Example 35]
8. CC(=O)c1cc2c(OC(=O)NCC[C@H](N)C(=O)O)c3ccccc3c(OC(=O)NCC[C@H](N)C(=O)O)c2o1.Cl.Cl [Example 12]

stdout:
[66, 60, 68, 50, 72, 62, 70, 78]
